Please respond with reported Synergistic activity (FIC value) ATCC19606 for every item in the list.
# Test system: ATCC19606 strain (Acinetobacter baumannii)
# Assay procedure: Checkerboard antibacterial synergistic activity test with polymyxin E (FIC)
# Assay type: cell-based
# Parameters: key: FIC≤0.5 synergy; 0.5–1 additive; 1–2 indifferent; ≥2 antagonism
# Experimental parameters: combined with polymyxin E

| Molecular string | Tgt | Obs value |
| --- | --- | --- |
| CS(=O)(=O)c1ccc(Oc2ccccc2Cl)cc1-c1nc(N=C2NCCCN2)sc1Cl | ATCC19606 strain (Acinetobacter baumannii) | 0.03 |

// each listed molecule needs a value for Synergistic activity (FIC value) ATCC19606
1. NC(N)=Nc1nc(-c2cccc(OCc3ccccc3)c2)cs1
2. NC(N)=Nc1nc(-c2cccc3ccccc23)cs1
3. NC(N)=Nc1nc(-c2cccc(Oc3ccc(N4CCOCC4)cc3)c2)cs1
4. CSc1cc2cccc(C)n2c1-c1nc(N=C(N)N)sc1Cl
5. Clc1sc(N=C2NCCCN2)nc1-c1ccccc1Oc1ccc(I)cc1I
6. NC(N)=Nc1nc(-c2cc(F)cc(Oc3ccc(Cl)cc3Cl)c2)cs1
7. NC(N)=Nc1nc(-c2cc(I)cc(I)c2)c[se]1

Reply:
1. 0.25
2. 0.13
3. 1.25
4. 0.31
5. 0.31
6. 0.02
7. 0.75

Query: Give its Synergistic activity (FIC value) ATCC19606 value. Item: CNC(=O)c1ccc(-c2ccncn2)c(-c2csc(N=C3NCCCN3)n2)c1
Reply: 1.25
